# Test system: BT-549
# Procedure text: NCI tumour cell line growth inhibition, 48 h
The source made the active and inactive calls. No stated cut-off is given here; in the data, active = GI50 up to about 1.1 µM and inactive = higher.
Reported GI50 values follow for various compounds

{"Compound": "CO/N=C1\\CCC2(O)C3Cc4ccc(O)c5c4C2(CCN3CC2CC2)[C@H]1O5 (stereo not given in full)", "GI50": "> 100 µM (inactive)"}
{"Compound": "C[Si](C)(OCCS(=O)(=O)O)OC(=C1S(=O)(=O)OCCOS1(=O)=O)c1cccc2ccccc12", "GI50": "> 100 µM (inactive)"}
{"Compound": "O=C(NCCN1C(=O)CN=C(c2ccc(Cl)cc2)c2cc(Cl)ccc21)OCc1ccccc1", "GI50": "15.6 µM (inactive)"}
{"Compound": "CCOC(=O)/C=C(/C=C\\COC1CCCCO1)c1ccccc1 (stereo not given)", "GI50": "41.1 µM (inactive)"}

We next turn to a different compound, shown below.
Qu. Tell me its GI50 given `C/C(=C\c1csc(C)n1)[C@@H]1C[C@@H]2O[C@@H]2CCC[C@H](C)[C@H](O)[C@@H](C)C(=O)C(C)(C)[C@@H](O)CC(=O)O1` as the entry.
Ans. < 0.0001 µM (active)

* * *

# Tested on: SF-539
# Procedure text: NCI tumour cell line growth inhibition, 48 h
Activity calls are given as the source filed them. Cut-off read from the data, not from the text of the source: active = GI50 up to about 1.1 µM and inactive = higher.
Value type: GI50

# annotated cases, reported GI50 shown
{"Compound": "C=Cc1ccc(C)[n+](C[Si](C)(C)O[Si](C)(C)C)c1", "GI50": "> 100 µM (inactive)"}
{"Compound": "O=C(O)CNS(=O)(=O)c1ccc(NC(=O)c2ccc([N+](=O)[O-])cc2)cc1", "GI50": "> 100 µM (inactive)"}
{"Compound": "NC1=NN(c2ccccc2)C(=O)C1C(=O)C(=O)Nc1ccc(Cl)c(Cl)c1 (stereo not given)", "GI50": "> 100 µM (inactive)"}

Qu. Name the recorded GI50 of the item COC(=O)C1=Cc2cn(S(=O)(=O)c3ccc(C)cc3)c3cccc(c23)C(C=C(C)C)N1C(C)=O (stereo not given) in your answer.
Ans. > 100 µM (inactive)

Qu. Determine from records and report GI50 for Cc1cc(=O)oc2cc(O)ccc12 [HYMECROMONE]
Ans. > 100 µM (inactive)

Qu. Supply GI50 value. Item: `COC(=O)c1nc(N)nc(O)c1CCCCCc1c(O)nc(N)nc1C(=O)OC`
Ans. > 50 µM (inactive)

Qu. Find the measured GI50 of Cc1ccc(S(=O)(=O)NC(=O)NC(CCCCN)C(=O)O)cc1 (stereo not given) and report it.
Ans. > 100 µM (inactive)

Qu. Could you please provide reported GI50 for `CC1(C)CN=C(Nc2cccc(C(F)(F)F)c2)S1` ? Thanks!
Ans. > 100 µM (inactive)

Qu. Report GI50 for `O=Cc1c(O)ccc2ccc(O)c(-c3c(O)ccc4ccc(O)cc34)c12`
Ans. 52.7 µM (inactive)

Qu. Quickly give me recorded GI50 for `CCOC(=O)/C(=C\c1ccc(N(C)C)cc1)S(=O)(=O)C(F)(F)C(F)(F)C(F)(F)C(F)(F)F`
Ans. > 100 µM (inactive)

* * *

# System: NCI-H23
# Procedure text: NCI tumour cell line growth inhibition, 48 h
Calls of active or inactive are those of the source. No stated cut-off is given here; in the data, active = GI50 up to about 1.1 µM and inactive = higher.
Entries and their GI50 values follow.

Examples with answers:
{"Compound": "O=C1c2ccccc2C(=O)c2c(O)ccc(O)c21", "Value type": "GI50", "Measurement": "> 100 µM (inactive)"}
{"Compound": "CS(=O)(=O)OCCN1CCN(C(=O)c2ccc(Cl)c3c(Nc4ccc(S(=O)(=O)N=C(N)N)cc4)c4ccccc4nc23)CC1", "Value type": "GI50", "Measurement": "> 100 µM (inactive)"}
{"Compound": "O=[N+]([O-])/C(C(Cl)=C(Cl)Cl)=C(/Cl)Sc1ccccc1", "Value type": "GI50", "Measurement": "1.77 µM (inactive)"}
{"Compound": "O=[N+]([O-])c1ccccc1OCCOc1ccccc1[N+](=O)[O-]", "Value type": "GI50", "Measurement": "> 100 µM (inactive)"}
{"Compound": "CC1(C)OP(=O)(c2ccccc2)C=C1Br (stereo unspecified)", "Value type": "GI50", "Measurement": "> 100 µM (inactive)"}
{"Compound": "COc1ccc(OC)c2c1CC(C(=O)O)(C(=O)O)CC2=O", "Value type": "GI50", "Measurement": "> 100 µM (inactive)"}
{"Compound": "Cn1c(=S)[nH]c2sc3c(c2c1=O)CCSC3", "Value type": "GI50", "Measurement": "36.9 µM (inactive)"}
{"Compound": "CCCCCCCCCCCCCCCCOP(=O)(O)OCC(NC(C)=O)C(=O)O (stereo unspecified)", "Value type": "GI50", "Measurement": "33 µM (inactive)"}

Qu. State its GI50: `CN(CC(=O)O)Cc1c(O)c(Cl)cc(Cl)c1Cl`
Ans. 95.3 µM (inactive)

Qu. Give GI50 for the following compound: `COC1=C(OC)C(=O)c2cc(C)c(=O)c(C)cc2C1=O`
Ans. 16.9 µM (inactive)

Qu. Provide only the value of recorded GI50 for `O=C(N/N=C/C=C/c1ccccc1)c1ccccc1Nc1ccccc1C(=O)N/N=C/C=C/c1ccccc1`
Ans. > 100 µM (inactive)

Qu. Give recorded GI50. CN1CN(c2ccccc2)C2(CCN(CCC3COc4ccccc4O3)CC2)C1=O (stereo unspecified)
Ans. 30.4 µM (inactive)

Qu. Tell me GI50 reported for `COC(=O)c1cc2c(cc1O)[C@@H](NC(C)=O)CCc1cc(OC)c(OC)c(OC)c1-2`
Ans. 0.0296 µM (active)

Qu. In one line, give reported GI50 of the entry `C/C(=N\NC(=S)NC(C)(C)C)c1ccccn1` .
Ans. < 0.0172 µM (active)

Qu. Could you please provide reported GI50 for `O=C(O)CN(c1ccc(F)cc1)S(=O)(=O)c1ccccc1` ? Thanks!
Ans. > 100 µM (inactive)

Qu. In one line, give reported GI50 of the entry `Oc1nc2ccccc2c(O)c1Cc1ccccc1` .
Ans. > 100 µM (inactive)

Qu. Output GI50 of C=C1CC2CC[C@@]34C[C@@H]5O[C@@H]6C(O[C@H]7CC[C@H](CC(=O)OC8[C@@H](C)C9OC%10C[C@]%11(C[C@@H]%12O[C@@]%13(C[C@@H](C)[C@@H]%12O%11)C[C@H](C)[C@@H]%11OC%12CC(C(O)CO)OC%12C[C@@H]%11O%13)OC%10CC9O[C@H]8C[C@H]8O[C@@H](CC[C@@H]1O2)C[C@@H](C)C8=C)O[C@@H]7[C@@H]6O3)C5O4 (stereo partly specified)
Ans. 0.00104 µM (active)

Qu. Note GI50 for the compound shown: `Cc1c(C)n(COCCO)c2ncnc(N)c12`
Ans. > 100 µM (inactive)

Qu. State its GI50: `O=C1C[C@@H]2[C@@H](CCC23CCCC3)N1`
Ans. > 100 µM (inactive)

Qu. Quickly give me recorded GI50 for COc1ccc(P2(=S)SP(=S)(c3ccc(Cl)cc3)S2)cc1 (stereo unspecified)
Ans. > 100 µM (inactive)

* * *

# System: XF498
# Procedure text: NCI tumour cell line growth inhibition, 48 h
Activity calls are given as the source filed them. Cut-off read from the data, not from the text of the source: active = GI50 up to about 1.1 µM and inactive = higher. Non-standard residues stand in square brackets, D forms with d. Residues, ends and D or L forms follow the SMILES beside them. ξ: configuration not given here. *: point of attachment. NMeF = CN[C@@H](Cc1ccccc1)C(=O)O; NMeV = CN[C@H](C(=O)O)C(C)C; ξNMeV = CNC(C(=O)O)C(C)C; Boc = CC(C)(C)OC(=O)*; OBn = c1ccc(CO*)cc1
GI50 values, listed per item

Illustrative cases are given below, each with its answer.
{"Compound": "CC(C)C(C(=O)N(C)[C@H](C(=O)N1CCC[C@H]1C(=O)N(C)[C@@H](Cc1ccccc1)C(=O)OCc1ccccc1)C(C)C)N(C)C(=O)[C@@H](NC(=O)OC(C)(C)C)C(C)C (some centres undefined) (Boc-V[ξNMeV][NMeV]P[NMeF]-OBn)", "GI50": "6.19 µM (inactive)"}
{"Compound": "N#C/C(=C/c1ccsc1)C(=O)c1ccccc1", "GI50": "> 100 µM (inactive)"}
{"Compound": "COC[C@@H]1Cc2cc(OC)c3c(c2[C@H](c2ccc(OC)c(OC)c2)[C@H]1COC)OCO3 [HYPOPHYLLANTHIN]", "GI50": "19.1 µM (inactive)"}

Qu. Read the entry C[C@]12Cc3conc3C(O)=C1CC[C@@H]1C2CC[C@@]2(C)C1CC[C@]2(C)O (some centres undefined) and write its reported GI50.
Ans. 18.2 µM (inactive)

* * *

# System: Hs-578T
# Procedure text: NCI tumour cell line growth inhibition, 48 h
Calls of active or inactive are those of the source. No stated cut-off is given here; in the data, active = GI50 up to about 1.1 µM and inactive = higher.
Can you answer with just one of these options? active, inactive

A selection of reference data follows.
{"Compound": "Cc1cn2c(/C=N/NC(=N)N)c(-c3ccc([N+](=O)[O-])cc3)nc2s1", "Measured target": "Hs-578T", "Label": "active"}
{"Compound": "Nc1ncc(Br)c(NCC2(CO)CCC2)n1", "Measured target": "Hs-578T", "Label": "inactive"}
{"Compound": "Cc1cc2oc(=N)c(C#N)c(C)c2cc1C", "Measured target": "Hs-578T", "Label": "inactive"}
{"Compound": "CCOC(=O)CCc1cccc2c1oc1c(CCNC(=O)OCC3c4ccccc4-c4ccccc43)cccc12", "Measured target": "Hs-578T", "Label": "inactive"}
{"Compound": "Cc1cnc2c(c1)C(=O)N(c1ccc(Oc3ccccc3)cc1)S2(=O)=O", "Measured target": "Hs-578T", "Label": "inactive"}

Now consider the entry below.
Qu. Hello, I am checking results. What call was entered for C=C(C(=O)OC)N1C(=O)CC(C)C1=O (stereo unspecified) ?
Ans. inactive
